- assay target: BCRP (Homo sapiens, UniProt Q9UNQ0)
- Sequence (Q9UNQ0 whole entry): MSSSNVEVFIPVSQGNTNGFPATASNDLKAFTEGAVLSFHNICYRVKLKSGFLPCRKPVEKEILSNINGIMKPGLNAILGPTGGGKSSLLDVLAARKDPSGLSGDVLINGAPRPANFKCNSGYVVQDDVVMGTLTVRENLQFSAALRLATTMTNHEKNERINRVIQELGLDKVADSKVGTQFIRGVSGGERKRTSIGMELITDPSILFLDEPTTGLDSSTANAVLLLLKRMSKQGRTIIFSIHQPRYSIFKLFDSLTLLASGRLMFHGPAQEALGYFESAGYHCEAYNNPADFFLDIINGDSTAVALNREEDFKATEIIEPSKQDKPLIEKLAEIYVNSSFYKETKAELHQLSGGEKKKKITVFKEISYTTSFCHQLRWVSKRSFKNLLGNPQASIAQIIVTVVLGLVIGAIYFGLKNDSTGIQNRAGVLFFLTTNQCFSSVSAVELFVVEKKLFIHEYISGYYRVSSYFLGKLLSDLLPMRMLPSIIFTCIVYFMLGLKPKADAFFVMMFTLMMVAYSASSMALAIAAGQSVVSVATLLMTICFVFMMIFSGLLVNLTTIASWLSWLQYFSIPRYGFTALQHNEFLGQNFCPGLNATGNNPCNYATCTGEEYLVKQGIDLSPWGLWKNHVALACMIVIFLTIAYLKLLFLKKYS
- protocol text: Inhibition of BCRP-mediated methotrexate uptake in Sf9 membrane vesicles
- details: BCRP-mediated methotrexate uptake; read-out: Islatravir IC50
pIC50: −log10 of the molar value.
quantity: pIC50

pIC50 measured on C#C[C@]1(CO)O[C@@H](n2cnc3c(N)nc(F)nc32)C[C@@H]1O [Islatravir, 4′-Ethynyl-2-fluoro-2′-deoxyadenosine] = < 4.00

----------
- protocol text: Plasma protein binding by equilibrium dialysis, monkey plasma
- Type: in vitro ADME
- details: pH 7.4
quantity: fraction unbound at 24 h, 0.1 µM

Short answer for "C#C[C@]1(CO)O[C@@H](n2cnc3c(N)nc(F)nc32)C[C@@H]1O" : fraction unbound at 24 h, 0.1 µM was > 0.84

----------
- assay target: CYP1A2 (Homo sapiens)
- Sequence (P05177 whole entry): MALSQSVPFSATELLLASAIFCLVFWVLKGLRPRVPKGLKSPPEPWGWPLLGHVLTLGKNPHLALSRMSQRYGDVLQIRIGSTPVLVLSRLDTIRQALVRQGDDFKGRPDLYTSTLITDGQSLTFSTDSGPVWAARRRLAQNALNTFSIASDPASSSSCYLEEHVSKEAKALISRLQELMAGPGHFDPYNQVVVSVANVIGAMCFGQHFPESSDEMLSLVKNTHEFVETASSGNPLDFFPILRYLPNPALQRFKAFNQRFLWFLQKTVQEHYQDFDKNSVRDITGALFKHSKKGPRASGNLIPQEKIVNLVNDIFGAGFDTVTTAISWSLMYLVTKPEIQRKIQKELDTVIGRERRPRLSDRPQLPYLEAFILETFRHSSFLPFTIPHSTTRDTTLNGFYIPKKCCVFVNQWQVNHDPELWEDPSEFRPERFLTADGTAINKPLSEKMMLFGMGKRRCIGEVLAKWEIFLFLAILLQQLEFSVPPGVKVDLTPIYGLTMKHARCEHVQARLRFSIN
- protocol text: Time-dependent CYP inhibition in pooled human liver microsomes
- Assay type: in vitro ADME
- details: time dependent, CYP1A2; read-out: Islatravir IC50
quantity: IC50

Recorded result, C#C[C@]1(CO)O[C@@H](n2cnc3c(N)nc(F)nc32)C[C@@H]1O [Islatravir, 4′-Ethynyl-2-fluoro-2′-deoxyadenosine] , IC50: > 50 µM

----------
- assay target: OCT2 (Homo sapiens, UniProt O15244)
- Sequence (O15244 whole entry): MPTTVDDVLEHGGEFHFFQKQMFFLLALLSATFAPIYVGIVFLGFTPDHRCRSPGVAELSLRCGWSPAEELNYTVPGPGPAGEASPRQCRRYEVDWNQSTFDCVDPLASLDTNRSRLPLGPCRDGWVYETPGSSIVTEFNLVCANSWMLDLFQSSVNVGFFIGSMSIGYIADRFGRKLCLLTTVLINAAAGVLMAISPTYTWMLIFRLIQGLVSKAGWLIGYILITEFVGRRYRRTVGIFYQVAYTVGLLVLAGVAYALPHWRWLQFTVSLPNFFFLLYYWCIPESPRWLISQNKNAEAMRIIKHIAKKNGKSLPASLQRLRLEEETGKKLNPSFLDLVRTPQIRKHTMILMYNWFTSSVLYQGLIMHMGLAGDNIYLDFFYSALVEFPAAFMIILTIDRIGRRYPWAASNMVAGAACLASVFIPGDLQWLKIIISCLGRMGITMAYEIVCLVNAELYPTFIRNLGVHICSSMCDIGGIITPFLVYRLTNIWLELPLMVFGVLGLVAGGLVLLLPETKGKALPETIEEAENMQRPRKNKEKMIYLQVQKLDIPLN
- protocol text: Inhibition of transporter-mediated probe uptake in CHO-K1-OCT2 cells
- details: OCT2-mediated metformin uptake; read-out: Islatravir IC50
pIC50: −log10 of the molar value.
quantity: pIC50

Lab book: pIC50 of C#C[C@]1(CO)O[C@@H](n2cnc3c(N)nc(F)nc32)C[C@@H]1O [Islatravir, 4′-Ethynyl-2-fluoro-2′-deoxyadenosine] noted as < 4.00

----------
- assay target: OAT3 (Homo sapiens, UniProt Q8TCC7)
- Construct: expressed in transfected cells; host or cells: MDCKII
- Sequence (Q8TCC7 1-542): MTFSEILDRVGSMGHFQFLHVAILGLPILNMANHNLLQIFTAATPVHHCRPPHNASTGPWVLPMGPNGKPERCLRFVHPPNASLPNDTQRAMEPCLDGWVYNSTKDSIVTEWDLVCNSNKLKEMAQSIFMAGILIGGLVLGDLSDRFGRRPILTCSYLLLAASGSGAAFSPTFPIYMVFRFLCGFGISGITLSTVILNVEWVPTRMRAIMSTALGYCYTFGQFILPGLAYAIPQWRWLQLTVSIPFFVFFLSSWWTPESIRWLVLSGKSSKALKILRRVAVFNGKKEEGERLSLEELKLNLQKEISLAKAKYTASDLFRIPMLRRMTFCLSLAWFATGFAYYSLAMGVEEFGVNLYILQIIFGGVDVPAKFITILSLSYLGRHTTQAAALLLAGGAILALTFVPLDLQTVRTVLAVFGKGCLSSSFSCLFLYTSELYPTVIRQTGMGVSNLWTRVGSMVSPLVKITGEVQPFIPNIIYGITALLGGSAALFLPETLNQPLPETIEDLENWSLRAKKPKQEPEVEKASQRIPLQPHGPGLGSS
- protocol text: Inhibition of transporter-mediated probe uptake in MDCKII-OAT3 cells
- Format: in vitro ADME
- details: MDCKII-OAT3 cells, probe estrone sulfate; 100 µM islatravir
quantity: inhibition at 100 µM
Give the number first and the unit second.

For "C#C[C@]1(CO)O[C@@H](n2cnc3c(N)nc(F)nc32)C[C@@H]1O" the compound record lists inhibition at 100 µM as 31%
